TEST_DETAILS: Therapeutic index, ratio of CC50 for human sHepG2(2.2.15) cells to IC50 for Hepatitis B virus
Type: cell-based
SETTINGS: HepG2 2.2.15 cells
VALUE_TYPE: selectivity ratio

[in] Which selectivity ratio is reported for this compound? O=C1CCC[C@@H]2[C@H]3CCC[N+]4([O-])CCC[C@@H](CN12)[C@@H]34 (stereo partly specified)
[out] > 100

====

TEST_DETAILS: Half life in human blood
Type: ADME, tissue-based
VALUE_TYPE: half-life (h)
Give bare numbers, in h.

[in] Need half-life, item O=C1CCC[C@@H]2[C@H]3CCC[N+]4([O-])CCC[C@@H](CN12)[C@@H]34 (stereo partly specified)
[out] 2.4
